Experiment: APR_HepG2_NuclearSize_24hr: Apredica 24-hour HepG2 Assay for Nuclear Size (AID 2282907)
Conditions: high-content imaging, actives raise or lower the signal
Activity calls are given as the source filed them. Rule for the calls: active = hit-call score of the fitted dose curve at least 0.9, where 1 is the maximum; inactive = score below 0.9.
Labels: Yes (active), No (inactive)

CCCCCCCCC(=O)O    No
CCc1ccc(CCOc2ccc(CC3SC(=O)NC3=O)cc2)nc1 (stereo not drawn)    No
CCCCOCCO    No
CCC(=C(c1ccc(O)cc1)c1ccc(OCCN(C)C)cc1)c1ccccc1    No
CCCCCCCCCCCCc1ccccc1S(=O)(=O)O    No
CC(C)(C)CC(C)(C)c1ccc(O)c(-n2nc3ccccc3n2)c1    No
CCOC(=O)CC(O)(CC(=O)OCC)C(=O)OCC    No
O=C(OCCOCCOC(=O)c1ccccc1)c1ccccc1    No
CC(C)(C)c1cccc(C(C)(C)C)c1O    No
CCc1nn(C2CCCCC2)c2cc(C3(C#N)CCC(C(=O)O)CC3)ccc12 (stereo not drawn)    No
CCCCCCCCCCCCN1CCCC1=O    Yes
CC(=O)CC(C)(C)O    No
CCCCCCC(=O)O    No
c1ccc2c(c1)Cc1ccccc1-2    No
CC1=C(/C=C/C(C)=C/C=C/C(C)=C/C(=O)O)C(C)(C)CCC1    Yes
OCCC(F)(F)C(F)(F)C(F)(F)C(F)(F)C(F)(F)C(F)(F)F    No
Oc1cccc(O)c1    No
CCCCCCCCCCCCCCCS(=O)(=O)Oc1ccccc1    No
CCC(C)(C)C1CCC(O)CC1 (stereo not drawn)    No
CN(C)C=O    No
O=[N+]([O-])c1ccc(O)cc1    No
OC1CCC(C2CCCCC2)CC1 (stereo not drawn)    No
CC(C)CCCCCCOC(=O)CCCCC(=O)OCCCCCCC(C)C    No
CC(O)CO (stereo not drawn)    No
COc1cc(CCC(=O)CC(=O)CCc2ccc(O)c(OC)c2)ccc1O    No
N#C[C@@H]1CC(F)(F)CN1C(=O)CNC1CC2CCC(C1)N2c1ncccn1 (stereo partly drawn)    No
CC(C)(C)c1ccc(O)c(C(C)(C)C)c1    No
CCN(CC)CCNc1ccc(CNC=O)c2sc3ccc(OC)cc3c(=O)c12    No
